system_name: human insulin receptor (HIR) (human, UniProt P06213 28-1382, limits assumed)
experiment_description: Kd(HIR), insulin competition
// returns class 0 unless Kd is strictly below 2000 nM, in which case class 1

input: Find out if reported Kd for 464 (other, not shown: large carriers; small tags and cut ends, MBP fusion) NNNNLGIEGRISEFIEGRDYKDDDDKFHENFYDWFVRQVSAAGAPVPYPDPLEPRAA is less than 2000 nM
output: class 1

input: Query 436 (other, not shown: large carriers; small tags and cut ends, MBP fusion) NNNNLGIEGRISEFIEGRAQPAMAFHENFYDWFVRQVSGGSGGSGGSFHENFYDWFVRQVSAAAGAPVPYPDPLEPRAA next
output: class 1

input: Query 437 (other, not shown: large carriers; small tags and cut ends, MBP fusion) NNNNLGIEGRISEFIEGRAQPAMAFHENFYDWFVRQVSAAAGAPVPYPDPLEPRAA next
output: class 0

Lab note: next binder to report on.
input: Find out if reported Kd for 463 (other, not shown: large carriers; small tags and cut ends, MBP fusion) NNNNLGIEGRISEFIEGRAQPAMAFHENFYDWFVRQVSGGSFHENFYDWFVRQVSAAAGAPVPYPDPLEPRAA is less than 2000 nM
output: class 1
